test system: U2OS; experiment: Multiplex assay against U2OS; type: toxicity, cell-based; settings: human, 24 h, 1 µM, compound concentration 1 uM, replicate 2
quantity-measured: Population Healthy Nuclei (%)
// note: answer is a bare numeric in %

Illustrative cases are given below, each with its answer.
{"smiles-repr": "CC(C)c1cc(Nc2nc(N3CCC[C@H](N)C3)ncc2C(N)=O)cc(C(C)C)n1", "readout-unit": "%", "Population Healthy Nuclei (%)": 68}
{"smiles-repr": "C=CC(=O)Nc1cc(-n2c(=O)ccc3cnc4ccc(-c5ccc(NS(C)(=O)=O)cc5)cc4c32)ccc1C", "readout-unit": "%", "Population Healthy Nuclei (%)": 76}
{"smiles-repr": "Oc1cccc(-c2nc(N3CCOCC3)c3oc4ncccc4c3n2)c1", "readout-unit": "%", "Population Healthy Nuclei (%)": 69}
{"smiles-repr": "Cc1c(Nc2ccc(S(=O)(=O)N3CCN(C)CC3)cc2F)nc2ccc(-c3cnn(C4CC4)c3)cn2c1=O", "readout-unit": "%", "Population Healthy Nuclei (%)": 89}
{"smiles-repr": "CC(/C=C1\\SC(=S)N(CCCC(=O)Nc2ccc(C(=O)O)c(O)c2)C1=O)=C\\c1ccccc1", "readout-unit": "%", "Population Healthy Nuclei (%)": 76}

Problem: Find the recorded Population Healthy Nuclei (%) belonging to CC[C@@H]1C(=O)N(C)c2cnc(Nc3ccc(C(=O)NC4CCN(C)CC4)cc3OC)nc2N1C1CCCC1 and report it.
Solution: 69

Problem: Find the recorded Population Healthy Nuclei (%) belonging to CCCCN(CC)c1nc(C)nc2c1c(C)cn2-c1c(C)cc(C)cc1C.Cl and report it.
Solution: 70

Problem: Find the recorded Population Healthy Nuclei (%) belonging to CCOc1ccn(-c2ccc(F)cc2)c(=O)c1C(=O)Nc1ccc(Oc2ccnc(N)c2Cl)c(F)c1 and report it.
Solution: 81

----------
List of Population Normal (%) values.
system: Fibroblast; assay: Multiplex assay against human fibroblast; assay type: toxicity, cell-based; conditions: 24 h, 1 µM, compound concentration 1 uM, replicate 2
// note: answer is a bare numeric in %

Illustrative cases are given below, each with its answer.
{"compound": "CCCCN(CC)c1nc(C)nc2c1c(C)cn2-c1c(C)cc(C)cc1C.Cl", "tested-on": "Fibroblast", "readout-unit": "%", "observed-result": 94}
{"compound": "C=CC(=O)Nc1cc(-n2c(=O)ccc3cnc4ccc(-c5ccc(NS(C)(=O)=O)cc5)cc4c32)ccc1C", "tested-on": "Fibroblast", "readout-unit": "%", "observed-result": 97}
{"compound": "CC[C@@H]1C(=O)N(C)c2cnc(Nc3ccc(C(=O)N[C@H]4CC[C@H](N5CCN(CC6CC6)CC5)CC4)cc3OC)nc2N1C(C)C [VOLASERTIB]", "tested-on": "Fibroblast", "readout-unit": "%", "observed-result": 61}

Problem: Hi! What's the reported Population Normal (%) for Cc1c(P(=S)(c2ccccc2)c2ccccc2)n2ccccc2[n+]1C/C=C/c1ccccc1.[Br-] on Fibroblast?
Solution: 66

Problem: Hi! What's the reported Population Normal (%) for N#Cc1cccc(C(=O)Nc2cc(-c3ccccc3)nn2-c2ccccc2)c1 on Fibroblast?
Solution: 95

Problem: Hi! What's the reported Population Normal (%) for Cc1c(Nc2ccc(S(=O)(=O)N3CCN(C)CC3)cc2F)nc2ccc(-c3cnn(C4CC4)c3)cn2c1=O on Fibroblast?
Solution: 79

Problem: Hi! What's the reported Population Normal (%) for CC(Cc1ccc(O)c(O)c1)C(C)Cc1ccc(O)c(O)c1 (stereo not drawn) [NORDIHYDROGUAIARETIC ACID] on Fibroblast?
Solution: 92

Problem: Hi! What's the reported Population Normal (%) for CC[C@@H]1C(=O)N(C)c2cnc(Nc3ccc(C(=O)NC4CCN(C)CC4)cc3OC)nc2N1C1CCCC1 [BI-2536] on Fibroblast?
Solution: 51

----------
List of Population Apoptotic (%) values.
tested on: Fibroblast; test: Multiplex assay against human fibroblast; type: toxicity, cell-based; settings: 24 h, 10 µM, compound concentration 10 uM, replicate 1
// note: answer is a bare numeric in %

Illustrative cases are given below, each with its answer.
{"smiles-repr": "N#Cc1cccc(C(=O)Nc2cc(-c3ccccc3)nn2-c2ccccc2)c1", "quantity-measured": "Population Apoptotic (%)", "observed-result": 45}
{"smiles-repr": "Cl.NC[C@@H]1O[C@H](C23CC4CC(CC(C4)C2)C3)Cc2c1ccc(O)c2O", "quantity-measured": "Population Apoptotic (%)", "observed-result": 58}
{"smiles-repr": "CC(C)c1cc(Nc2nc(N3CCC[C@H](N)C3)ncc2C(N)=O)cc(C(C)C)n1", "quantity-measured": "Population Apoptotic (%)", "observed-result": 63}
{"smiles-repr": "CCOc1ccn(-c2ccc(F)cc2)c(=O)c1C(=O)Nc1ccc(Oc2ccnc(N)c2Cl)c(F)c1", "quantity-measured": "Population Apoptotic (%)", "observed-result": 80}
{"smiles-repr": "CC[C@@H]1C(=O)N(C)c2cnc(Nc3ccc(C(=O)NC4CCN(C)CC4)cc3OC)nc2N1C1CCCC1", "quantity-measured": "Population Apoptotic (%)", "observed-result": 75}
{"smiles-repr": "NC(=O)c1ccc2nc(-c3ccc(C4(N)CCC4)cc3)c(-c3ccccc3)n2n1", "quantity-measured": "Population Apoptotic (%)", "observed-result": 52}

Problem: Find the recorded Population Apoptotic (%) belonging to Cc1c(Nc2ccc(S(=O)(=O)N3CCN(C)CC3)cc2F)nc2ccc(Nc3cnn(C4CC4)c3)cn2c1=O and report it.
Solution: 65

Problem: Find the recorded Population Apoptotic (%) belonging to CCCc1cc(C)[nH]c(=O)c1CNC(=O)c1cc(-c2ccc(N3CCN(C(C)C)CC3)nc2)cc2c1cnn2C(C)C and report it.
Solution: 46

----------
system: U2OS; test: Multiplex assay against U2OS; format: toxicity, cell-based; settings: human, 12 h, 1 µM, compound concentration 1 uM, replicate 2
quantity-measured: Population Membrane Permeable-Phenotype (%)

Illustrative cases are given below, each with its answer.
{"compound": "CC(C)[C@H](CO)Nc1nc(Nc2cccc(Cl)c2)c2ncn(C(C)C)c2n1 [PURVALANOLA]", "observed-result": "7%"}
{"compound": "Oc1cccc(-c2nc(N3CCOCC3)c3oc4ncccc4c3n2)c1 [PI-103]", "observed-result": "2%"}
{"compound": "CCCCN(CC)c1nc(C)nc2c1c(C)cn2-c1c(C)cc(C)cc1C.Cl", "observed-result": "5%"}
{"compound": "CC[C@@H]1C(=O)N(C)c2cnc(Nc3ccc(C(=O)NC4CCN(C)CC4)cc3OC)nc2N1C1CCCC1 [BI-2536]", "observed-result": "33%"}
{"compound": "CS(=O)(=O)N1CCCC(NC(=O)[C@H](CCC2CCCCC2)NC(=O)c2ccc(CNC(=O)c3cnc4ccccn34)cc2)C1 (stereo partly specified) [SR-302]", "observed-result": "7% [middle of 4 runs]"}

Problem: Find the recorded Population Membrane Permeable-Phenotype (%) belonging to Cc1c(P(=S)(c2ccccc2)c2ccccc2)n2ccccc2[n+]1C/C=C/c1ccccc1.[Br-] and report it.
Solution: 10%

Problem: Find the recorded Population Membrane Permeable-Phenotype (%) belonging to CN(c1cc(C(F)(F)F)nc(OCCC(=O)O)n1)c1cccc2c1CCC2 and report it.
Solution: 4%

Problem: Find the recorded Population Membrane Permeable-Phenotype (%) belonging to Cl.Cn1c2c(c3ccc(Cl)c(Cl)c31)C(C#N)C1(CCNCC1)NC2=O (stereo unspecified) and report it.
Solution: 9%

Problem: Find the recorded Population Membrane Permeable-Phenotype (%) belonging to Cl.NC[C@@H]1O[C@H](C23CC4CC(CC(C4)C2)C3)Cc2c1ccc(O)c2O and report it.
Solution: 2%

Problem: Find the recorded Population Membrane Permeable-Phenotype (%) belonging to Cc1c(Nc2ccc(S(=O)(=O)N3CCN(C)CC3)cc2F)nc2ccc(Nc3cnn(C4CC4)c3)cn2c1=O and report it.
Solution: 40%

Problem: Find the recorded Population Membrane Permeable-Phenotype (%) belonging to N#CCNC(=O)c1ccc(-c2ccnc(Nc3ccc(N4CCOCC4)cc3)n2)cc1 [MOMELOTINIB] and report it.
Solution: 2%

Problem: Find the recorded Population Membrane Permeable-Phenotype (%) belonging to CCCc1cc(C)[nH]c(=O)c1CNC(=O)c1cc(-c2ccc(N3CCN(C(C)C)CC3)nc2)cc2c1cnn2C(C)C and report it.
Solution: 8%

Problem: Find the recorded Population Membrane Permeable-Phenotype (%) belonging to CCOc1ccn(-c2ccc(F)cc2)c(=O)c1C(=O)Nc1ccc(Oc2ccnc(N)c2Cl)c(F)c1 [BMS-777607] and report it.
Solution: 40%

Problem: Find the recorded Population Membrane Permeable-Phenotype (%) belonging to Cc1ccc(NC(=O)Nc2cc(C(F)(F)F)ccc2F)cc1Nc1ccc2c(c1)NC(=O)/C2=C\c1ccc[nH]1 and report it.
Solution: 91%

Problem: Find the recorded Population Membrane Permeable-Phenotype (%) belonging to N#Cc1cccc(C(=O)Nc2cc(-c3ccccc3)nn2-c2ccccc2)c1 and report it.
Solution: 6%

Problem: Find the recorded Population Membrane Permeable-Phenotype (%) belonging to CC(C)c1cc(Nc2nc(N3CCC[C@H](N)C3)ncc2C(N)=O)cc(C(C)C)n1 and report it.
Solution: 16%
